biological target: human orexin-2 receptor (OX2R) (Homo sapiens, UniProt O43614); experiment: Human OX2R IP1 assay; details: T-Rex CHO cells stably overexpressing human OX2R, IP1 accumulation, 1 hr at 37 degrees C
Sequence (O43614 whole entry): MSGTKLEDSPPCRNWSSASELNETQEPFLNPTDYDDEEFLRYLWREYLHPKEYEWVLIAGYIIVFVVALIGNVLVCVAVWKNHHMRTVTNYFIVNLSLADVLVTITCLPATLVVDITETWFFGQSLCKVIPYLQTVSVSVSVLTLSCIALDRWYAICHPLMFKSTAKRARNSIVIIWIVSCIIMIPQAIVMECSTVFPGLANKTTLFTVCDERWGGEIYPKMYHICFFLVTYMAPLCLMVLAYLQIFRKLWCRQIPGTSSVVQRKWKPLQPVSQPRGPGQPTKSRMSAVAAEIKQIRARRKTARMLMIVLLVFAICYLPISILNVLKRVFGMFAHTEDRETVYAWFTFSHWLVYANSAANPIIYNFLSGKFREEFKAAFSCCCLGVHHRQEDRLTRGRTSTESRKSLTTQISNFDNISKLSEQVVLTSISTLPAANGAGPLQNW
propertyLabel: EC50

>>> observed("CN1C(=O)OCC(=O)N2CCC[C@H](NS(C)(=O)=O)[C@@H]2CO[C@H]2CC[C@@H]1CC2")
"100 to 1000 nM"
>>> observed("CCN1C(=O)OCC(=O)N2CCC[C@H](NS(C)(=O)=O)[C@@H]2CO[C@H]2CC[C@@H]1CC2")
"100 to 1000 nM"
>>> observed("CS(=O)(=O)N[C@H]1CCCN2C(=O)COC(=O)N(C3CC3)[C@H]3CC[C@H](CC3)OC[C@@H]12")
"100 to 1000 nM"
>>> observed("CS(=O)(=O)N[C@H]1CCCN2C(=O)COC(=O)N(CC3CC3)[C@H]3CC[C@H](CC3)OC[C@@H]12")
"100 to 1000 nM"
>>> observed("CS(=O)(=O)N[C@H]1CCCN2C(=O)COC(=O)N(CC(F)(F)F)[C@H]3CC[C@H](CC3)OC[C@@H]12")
"> 1000 nM"

The measured values listed here are drawn from patent US12637476B2.
